Tested target: T1, human IL-18BP (human, UniProt O95998 31-194)
T1 construct: UniProt printed as 095998; also called hIL-18BP
T1 sequence: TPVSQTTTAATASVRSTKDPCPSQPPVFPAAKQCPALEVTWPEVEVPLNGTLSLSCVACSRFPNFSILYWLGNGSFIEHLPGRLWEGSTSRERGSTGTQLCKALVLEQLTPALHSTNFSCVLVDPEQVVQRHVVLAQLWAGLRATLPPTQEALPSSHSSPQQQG
Protocol description: BLI, apparent KD
Experimental endpoint: Kd (nM)
Note: unit nM is implicit; provide only the numeric part.

Some solved cases for reference:
{"Binder": "SA302a HC-H35D (antibody, V domains shown) VH: QVQLQESGPGLVKPSQTLSLTCTVSGYSITSDYNADWIRQPPGKGLEWIGYIHYSGSTNYNPSLKSRVTISRDTSKNQFSLKLSSVTAADTAVYYCARNYGSIYVNYFDYWGQGTLVTVSS VL: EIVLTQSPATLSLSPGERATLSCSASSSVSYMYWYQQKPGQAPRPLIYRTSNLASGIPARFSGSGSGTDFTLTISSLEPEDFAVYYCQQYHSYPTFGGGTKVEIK", "Kd [nM]": 4.23}
{"Binder": "SA302a HC-S31L (antibody, V domains shown) VH: QVQLQESGPGLVKPSQTLSLTCTVSGYSITLDYNAHWIRQPPGKGLEWIGYIHYSGSTNYNPSLKSRVTISRDTSKNQFSLKLSSVTAADTAVYYCARNYGSIYVNYFDYWGQGTLVTVSS VL: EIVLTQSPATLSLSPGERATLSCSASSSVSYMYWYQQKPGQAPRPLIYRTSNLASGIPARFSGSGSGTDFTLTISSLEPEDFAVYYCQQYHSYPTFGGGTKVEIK", "Kd [nM]": 0.98}
{"Binder": "SA302a HC-S31A (antibody, V domains shown) VH: QVQLQESGPGLVKPSQTLSLTCTVSGYSITADYNAHWIRQPPGKGLEWIGYIHYSGSTNYNPSLKSRVTISRDTSKNQFSLKLSSVTAADTAVYYCARNYGSIYVNYFDYWGQGTLVTVSS VL: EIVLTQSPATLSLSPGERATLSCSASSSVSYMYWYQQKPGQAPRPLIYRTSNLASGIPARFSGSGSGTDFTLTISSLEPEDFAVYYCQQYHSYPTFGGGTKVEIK", "Kd [nM]": 0.92}
{"Binder": "SA302a HC-S31E (antibody, V domains shown) VH: QVQLQESGPGLVKPSQTLSLTCTVSGYSITEDYNAHWIRQPPGKGLEWIGYIHYSGSTNYNPSLKSRVTISRDTSKNQFSLKLSSVTAADTAVYYCARNYGSIYVNYFDYWGQGTLVTVSS VL: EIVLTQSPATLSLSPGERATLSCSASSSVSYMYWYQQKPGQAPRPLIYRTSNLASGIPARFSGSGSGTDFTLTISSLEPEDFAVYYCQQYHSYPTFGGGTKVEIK", "Kd [nM]": 1.53}
{"Binder": "SA302a HC-N33bA (antibody, V domains shown) VH: QVQLQESGPGLVKPSQTLSLTCTVSGYSITSDYAAHWIRQPPGKGLEWIGYIHYSGSTNYNPSLKSRVTISRDTSKNQFSLKLSSVTAADTAVYYCARNYGSIYVNYFDYWGQGTLVTVSS VL: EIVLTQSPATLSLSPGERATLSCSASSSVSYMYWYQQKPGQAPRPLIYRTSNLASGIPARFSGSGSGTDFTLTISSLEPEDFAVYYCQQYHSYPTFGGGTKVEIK", "Kd [nM]": 5.45}

stdin: For SA302a HC-H35L (antibody, V domains shown) VH: QVQLQESGPGLVKPSQTLSLTCTVSGYSITSDYNALWIRQPPGKGLEWIGYIHYSGSTNYNPSLKSRVTISRDTSKNQFSLKLSSVTAADTAVYYCARNYGSIYVNYFDYWGQGTLVTVSS VL: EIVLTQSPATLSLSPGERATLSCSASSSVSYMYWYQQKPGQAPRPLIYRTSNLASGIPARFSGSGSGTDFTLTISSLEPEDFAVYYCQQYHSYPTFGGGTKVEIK , what is its reported Kd?
stdout: 1.74

stdin: For SA302a HC-T30Q (antibody, V domains shown) VH: QVQLQESGPGLVKPSQTLSLTCTVSGYSIQSDYNAHWIRQPPGKGLEWIGYIHYSGSTNYNPSLKSRVTISRDTSKNQFSLKLSSVTAADTAVYYCARNYGSIYVNYFDYWGQGTLVTVSS VL: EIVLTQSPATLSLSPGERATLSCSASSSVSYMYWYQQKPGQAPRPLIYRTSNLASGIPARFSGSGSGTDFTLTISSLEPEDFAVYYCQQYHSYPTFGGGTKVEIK , what is its reported Kd?
stdout: 1.28

stdin: For SA302a HC-D33R (antibody, V domains shown) VH: QVQLQESGPGLVKPSQTLSLTCTVSGYSITSRYNAHWIRQPPGKGLEWIGYIHYSGSTNYNPSLKSRVTISRDTSKNQFSLKLSSVTAADTAVYYCARNYGSIYVNYFDYWGQGTLVTVSS VL: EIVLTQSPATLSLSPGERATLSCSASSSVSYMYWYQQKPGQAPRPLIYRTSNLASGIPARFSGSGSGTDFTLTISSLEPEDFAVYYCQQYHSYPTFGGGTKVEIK , what is its reported Kd?
stdout: 2.24

stdin: For SA302a HC-N33bD (antibody, V domains shown) VH: QVQLQESGPGLVKPSQTLSLTCTVSGYSITSDYDAHWIRQPPGKGLEWIGYIHYSGSTNYNPSLKSRVTISRDTSKNQFSLKLSSVTAADTAVYYCARNYGSIYVNYFDYWGQGTLVTVSS VL: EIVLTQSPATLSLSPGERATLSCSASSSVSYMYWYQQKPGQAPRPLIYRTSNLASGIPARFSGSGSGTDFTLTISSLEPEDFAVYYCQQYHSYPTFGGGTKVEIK , what is its reported Kd?
stdout: 1.03

stdin: For SA302a HC-D33V (antibody, V domains shown, IgG1 kappa) VH: QVQLQESGPGLVKPSQTLSLTCTVSGYSITSVYNAHWIRQPPGKGLEWIGYIHYSGSTNYNPSLKSRVTISRDTSKNQFSLKLSSVTAADTAVYYCARNYGSIYVNYFDYWGQGTLVTVSS VL: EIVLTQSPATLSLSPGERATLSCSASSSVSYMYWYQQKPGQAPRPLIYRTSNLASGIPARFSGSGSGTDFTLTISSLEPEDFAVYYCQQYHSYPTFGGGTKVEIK , what is its reported Kd?
stdout: 5.42
